Assay Explanation: self-splicing fitness, log relative to wild type (ln ratio); higher = more splicing; Tetrahymena group I intron in knt gene, E. coli kanamycin selection, DiMSum; sequences stand for … in CUCUCU…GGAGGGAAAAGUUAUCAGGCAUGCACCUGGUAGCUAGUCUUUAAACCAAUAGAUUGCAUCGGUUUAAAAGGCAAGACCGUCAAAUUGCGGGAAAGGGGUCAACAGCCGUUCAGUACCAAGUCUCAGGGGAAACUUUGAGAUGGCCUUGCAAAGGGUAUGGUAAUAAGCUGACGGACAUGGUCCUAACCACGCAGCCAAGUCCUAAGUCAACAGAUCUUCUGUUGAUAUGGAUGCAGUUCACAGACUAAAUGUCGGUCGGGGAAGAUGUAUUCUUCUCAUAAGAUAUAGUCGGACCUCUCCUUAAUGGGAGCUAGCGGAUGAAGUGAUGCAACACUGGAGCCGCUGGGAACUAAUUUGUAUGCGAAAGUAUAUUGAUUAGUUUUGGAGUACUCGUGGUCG;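 also: selection with 25 µg/mL kanamycin versus none on LB agar overnight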
Setup Conditions: 30 °C
Recorded self-splicing fitness (ln) split into classes band A (below -3), band B (-3 to below -2), band C (-2 or more)

sequence_record=CCAAAGCAAUAUUACGGACA class_assignment="band B"
sequence_record=GCGAAGCAAUAUUACGCACU class_assignment="band C"
sequence_record=UUCAAGCAAUAUUACGUGAG class_assignment="band C"
sequence_record=ACAGAGCAAUAUUACGAAGG class_assignment="band A"
sequence_record=ACUAAGCAAUAUUACGAGAA class_assignment="band B"
sequence_record=UGUUAGCAAUAUUACGUCUC class_assignment="band A"
sequence_record=GUGAAGCAAUAUUACGAUGG class_assignment="band B"
sequence_record=CUUCAGCAAUAUUACGUUUU class_assignment="band C"
sequence_record=UAGGAGCAAUAUUACGCCUG class_assignment="band A"
sequence_record=AAUCAGCAAUAUUACGAAUC class_assignment="band C"
sequence_record=GAUUAGCAAUAUUACGGUGC class_assignment="band C"
sequence_record=UAGCAGCAAUAUUACGCAGA class_assignment="band C"
sequence_record=UUGUAGCAAUAUUACGAGGU class_assignment="band B"
sequence_record=CUUGAGCAAUAUUACGUUCG class_assignment="band A"
sequence_record=CUGGAGCAAUAUUACGCUCG class_assignment="band C"
sequence_record=CGAGAGCAAUAUUACGAGUC class_assignment="band A"
sequence_record=ACUAAGCAAUAUUACGCCGU class_assignment="band C"
sequence_record=CCUAAGCAAUAUUACGCACU class_assignment="band B"
sequence_record=UCGAAGCAAUAUUACGCUCA class_assignment="band B"
sequence_record=AACGAGCAAUAUUACGGUAU class_assignment="band A"
sequence_record=GGUGAGCAAUAUUACGCUUA class_assignment="band A"
sequence_record=CAACAGCAAUAUUACGUGGC class_assignment="band A"
sequence_record=UGGAAGCAAUAUUACGCCCU class_assignment="band C"
sequence_record=UGAGAGCAAUAUUACGGAUC class_assignment="band C"
sequence_record=GUUUAGCAAUAUUACGUCUC class_assignment="band C"
sequence_record=CCCCAGCAAUAUUACGCUGU class_assignment="band A"
sequence_record=AUCAAGCAAUAUUACGGAGA class_assignment="band B"
sequence_record=CAGGAGCAAUAUUACGUUUA class_assignment="band A"
sequence_record=UAUCAGCAAUAUUACGAGUG class_assignment="band C"
sequence_record=CAGCAGCAAUAUUACGGGGG class_assignment="band C"
sequence_record=CACCAGCAAUAUUACGAGCA class_assignment="band A"
sequence_record=AUCAAGCAAUAUUACGGACA class_assignment="band C"
sequence_record=AGAUAGCAAUAUUACGAACA class_assignment="band C"
sequence_record=AGAAAGCAAUAUUACGUAAG class_assignment="band C"
sequence_record=GAACAGCAAUAUUACGCGAG class_assignment="band B"
sequence_record=AACCAGCAAUAUUACGUGCG class_assignment="band C"
sequence_record=AACAAGCAAUAUUACGUACC class_assignment="band C"
sequence_record=ACGAAGCAAUAUUACGGGAU class_assignment="band A"
sequence_record=CCGCAGCAAUAUUACGUGGC class_assignment="band A"
sequence_record=CUUCAGCAAUAUUACGCAGU class_assignment="band A"
sequence_record=UGGAAGCAAUAUUACGUCGA class_assignment="band C"
sequence_record=CUCCAGCAAUAUUACGACUC class_assignment="band A"
sequence_record=CGUCAGCAAUAUUACGACGA class_assignment="band C"
sequence_record=GGUAAGCAAUAUUACGGCGA class_assignment="band C"
sequence_record=AACGAGCAAUAUUACGGGCU class_assignment="band A"
sequence_record=UACAAGCAAUAUUACGUCAU class_assignment="band A"
sequence_record=UCCCAGCAAUAUUACGCCCG class_assignment="band A"
sequence_record=GGGGAGCAAUAUUACGUACG class_assignment="band C"
sequence_record=ACUUAGCAAUAUUACGCUCA class_assignment="band C"
sequence_record=ACCAAGCAAUAUUACGCGCC class_assignment="band C"
sequence_record=ACCUAGCAAUAUUACGUGCA class_assignment="band B"
sequence_record=UGUAAGCAAUAUUACGUGUG class_assignment="band C"
sequence_record=GCAGAGCAAUAUUACGAAAU class_assignment="band A"
sequence_record=UACUAGCAAUAUUACGCACU class_assignment="band C"
sequence_record=AAGCAGCAAUAUUACGACGU class_assignment="band C"
sequence_record=CGUGAGCAAUAUUACGGAUC class_assignment="band A"
sequence_record=CCUUAGCAAUAUUACGCAUA class_assignment="band A"
sequence_record=GACCAGCAAUAUUACGAGGG class_assignment="band A"
sequence_record=UUAUAGCAAUAUUACGCAGA class_assignment="band B"

====

Assay Explanation: self-splicing fitness, log relative to wild type (ln ratio); higher = more splicing; Tetrahymena group I intron in knt gene, E. coli kanamycin selection, DiMSum; sequences stand for … in CUCUCU…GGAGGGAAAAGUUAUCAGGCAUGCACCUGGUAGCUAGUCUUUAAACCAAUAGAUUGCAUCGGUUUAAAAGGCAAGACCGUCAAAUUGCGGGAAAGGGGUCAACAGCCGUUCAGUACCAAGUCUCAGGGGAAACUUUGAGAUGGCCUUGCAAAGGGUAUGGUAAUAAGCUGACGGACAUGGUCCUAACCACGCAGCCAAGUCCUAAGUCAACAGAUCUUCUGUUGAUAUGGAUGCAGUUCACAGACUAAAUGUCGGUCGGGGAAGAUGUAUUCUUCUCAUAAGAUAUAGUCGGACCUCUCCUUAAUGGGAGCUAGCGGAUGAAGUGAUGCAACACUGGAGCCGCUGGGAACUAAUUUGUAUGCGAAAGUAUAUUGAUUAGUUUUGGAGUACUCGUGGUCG
Setup Conditions: 30 °C
Measurement Name: self-splicing fitness (ln)

sequence_record=AGCCAGCAAUAUUACGAAUA measurement_name="self-splicing fitness (ln)" result=-3.25
sequence_record=CGCGAGCAAUAUUACGUUUA measurement_name="self-splicing fitness (ln)" result=-3.98
sequence_record=GACCAGCAAUAUUACGGUAU measurement_name="self-splicing fitness (ln)" result=-1.29
sequence_record=CAAGAGCAAUAUUACGGCGC measurement_name="self-splicing fitness (ln)" result=-3.56
sequence_record=ACCAAGCAAUAUUACGAGAC measurement_name="self-splicing fitness (ln)" result=-3.68
sequence_record=UCCGAGCAAUAUUACGGCCU measurement_name="self-splicing fitness (ln)" result=-3.24
sequence_record=UCCAAGCAAUAUUACGUUCA measurement_name="self-splicing fitness (ln)" result=-1.4
sequence_record=ACCAAGCAAUAUUACGCAAA measurement_name="self-splicing fitness (ln)" result=-1.56
sequence_record=CGACAGCAAUAUUACGCUCC measurement_name="self-splicing fitness (ln)" result=-1.44
sequence_record=AGCUAGCAAUAUUACGUUUC measurement_name="self-splicing fitness (ln)" result=-4.92
sequence_record=UCGGAGCAAUAUUACGUCCU measurement_name="self-splicing fitness (ln)" result=-1.79
sequence_record=AUUCAGCAAUAUUACGACUG measurement_name="self-splicing fitness (ln)" result=-1.47
sequence_record=UAUUAGCAAUAUUACGGCUC measurement_name="self-splicing fitness (ln)" result=-0.997
sequence_record=UAGCAGCAAUAUUACGGGGC measurement_name="self-splicing fitness (ln)" result=-3.58
sequence_record=CAAAAGCAAUAUUACGGCGU measurement_name="self-splicing fitness (ln)" result=-1.23
sequence_record=GAACAGCAAUAUUACGCCGG measurement_name="self-splicing fitness (ln)" result=-1.56

====

Assay Explanation: self-splicing fitness, log relative to wild type (ln ratio); higher = more splicing; Tetrahymena group I intron in knt gene, E. coli kanamycin selection, DiMSum; sequences stand for … in CUCUCU…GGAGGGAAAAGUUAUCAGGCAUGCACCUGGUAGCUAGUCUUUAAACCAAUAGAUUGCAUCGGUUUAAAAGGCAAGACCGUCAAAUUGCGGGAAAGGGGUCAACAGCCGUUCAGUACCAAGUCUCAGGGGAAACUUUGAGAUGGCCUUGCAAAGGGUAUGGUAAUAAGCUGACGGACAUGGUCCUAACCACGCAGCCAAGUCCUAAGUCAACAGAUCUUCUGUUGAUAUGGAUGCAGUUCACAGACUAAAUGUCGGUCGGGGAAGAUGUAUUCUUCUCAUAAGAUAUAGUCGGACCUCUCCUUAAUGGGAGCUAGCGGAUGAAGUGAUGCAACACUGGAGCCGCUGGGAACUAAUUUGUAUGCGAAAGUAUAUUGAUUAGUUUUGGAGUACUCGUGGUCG
Setup Conditions: 37 °C
Label Met when self-splicing fitness (ln) is at or above -1; otherwise label Not met.

sequence_record=ACGUAGCAAUAUUACGCGAC class_assignment="Not met"
sequence_record=AUUCAGCAAUAUUACGGAGG class_assignment="Not met"
sequence_record=UUAGAGCAAUAUUACGAGGA class_assignment=Met
sequence_record=AGAGAGCAAUAUUACGCUAG class_assignment="Not met"
sequence_record=GGCCAGCAAUAUUACGGCCA class_assignment="Not met"
sequence_record=GUGUAGCAAUAUUACGACGU class_assignment=Met
sequence_record=UAGAAGCAAUAUUACGGGGU class_assignment="Not met"
sequence_record=UGGAAGCAAUAUUACGCCAU class_assignment="Not met"
sequence_record=CUCAAGCAAUAUUACGUAAA class_assignment="Not met"
sequence_record=ACGUAGCAAUAUUACGGAGG class_assignment="Not met"
sequence_record=AAUAAGCAAUAUUACGUGUA class_assignment="Not met"
sequence_record=ACGCAGCAAUAUUACGCACG class_assignment="Not met"
sequence_record=GCCAAGCAAUAUUACGCAGA class_assignment="Not met"
sequence_record=UUUUAGCAAUAUUACGCGAU class_assignment="Not met"
sequence_record=AUAAAGCAAUAUUACGGGCA class_assignment=Met
sequence_record=UCGGAGCAAUAUUACGGGCG class_assignment="Not met"
sequence_record=CGUUAGCAAUAUUACGAAUG class_assignment=Met
sequence_record=UAGGAGCAAUAUUACGGUGU class_assignment="Not met"
sequence_record=CCACAGCAAUAUUACGCAAC class_assignment="Not met"
sequence_record=CGGGAGCAAUAUUACGUCGU class_assignment="Not met"
sequence_record=CUGUAGCAAUAUUACGAGCG class_assignment=Met
sequence_record=AUUUAGCAAUAUUACGCGCU class_assignment=Met
sequence_record=ACUCAGCAAUAUUACGAAAG class_assignment="Not met"
sequence_record=CCAAAGCAAUAUUACGGUAG class_assignment=Met
sequence_record=AUACAGCAAUAUUACGGGGA class_assignment="Not met"
sequence_record=AACCAGCAAUAUUACGUUAG class_assignment="Not met"
sequence_record=GUCUAGCAAUAUUACGAUGG class_assignment=Met
sequence_record=GCAUAGCAAUAUUACGUCUU class_assignment=Met
sequence_record=CAGGAGCAAUAUUACGCACG class_assignment=Met
sequence_record=UGUAAGCAAUAUUACGUGUU class_assignment=Met
sequence_record=GUAGAGCAAUAUUACGUUUC class_assignment=Met
sequence_record=ACAGAGCAAUAUUACGAUGC class_assignment="Not met"
sequence_record=UCCGAGCAAUAUUACGGCUC class_assignment=Met
sequence_record=ACACAGCAAUAUUACGAGCC class_assignment=Met
sequence_record=UUUAAGCAAUAUUACGCAUA class_assignment=Met
sequence_record=UCCAAGCAAUAUUACGCUCA class_assignment=Met
sequence_record=GGUGAGCAAUAUUACGUAGU class_assignment="Not met"
sequence_record=CUACAGCAAUAUUACGACUU class_assignment="Not met"
sequence_record=CACAAGCAAUAUUACGCCCA class_assignment=Met
sequence_record=GCCCAGCAAUAUUACGGUUA class_assignment=Met
sequence_record=UCAGAGCAAUAUUACGUGAG class_assignment=Met
sequence_record=GACCAGCAAUAUUACGUCUU class_assignment=Met
sequence_record=CCAGAGCAAUAUUACGCUGC class_assignment="Not met"
sequence_record=GGUAAGCAAUAUUACGAGUC class_assignment=Met
sequence_record=AGUAAGCAAUAUUACGUUCG class_assignment="Not met"
sequence_record=UCACAGCAAUAUUACGCAUA class_assignment="Not met"
sequence_record=AACCAGCAAUAUUACGAAAG class_assignment="Not met"
sequence_record=GUGUAGCAAUAUUACGGUUG class_assignment="Not met"
sequence_record=GACAAGCAAUAUUACGGCAC class_assignment=Met
sequence_record=UAGGAGCAAUAUUACGGUGA class_assignment="Not met"
sequence_record=UGGGAGCAAUAUUACGGUUA class_assignment="Not met"
sequence_record=CGCGAGCAAUAUUACGCUAU class_assignment="Not met"
sequence_record=GGACAGCAAUAUUACGUAUC class_assignment=Met
sequence_record=GCAGAGCAAUAUUACGCUUG class_assignment="Not met"
sequence_record=AUCCAGCAAUAUUACGUGGA class_assignment="Not met"
sequence_record=ACCUAGCAAUAUUACGAGUA class_assignment="Not met"
sequence_record=UCUUAGCAAUAUUACGGUAU class_assignment="Not met"
sequence_record=GAAGAGCAAUAUUACGCCGU class_assignment="Not met"
sequence_record=CAAGAGCAAUAUUACGAAAA class_assignment="Not met"
sequence_record=AACGAGCAAUAUUACGCGUG class_assignment="Not met"
sequence_record=AAGUAGCAAUAUUACGCUGG class_assignment=Met
sequence_record=GUGCAGCAAUAUUACGGAUG class_assignment="Not met"
sequence_record=CAACAGCAAUAUUACGCUUG class_assignment="Not met"
sequence_record=AACGAGCAAUAUUACGAGCG class_assignment="Not met"
sequence_record=CGCCAGCAAUAUUACGAUUG class_assignment=Met
